- TARGET SYSTEM: T1, Amylin 3(a) receptor (human calcitonin receptor (CTa) with RAMP-3) (human, UniProt P30988 25-474; O60896 24-148, limits assumed)
- T1 sequence (looked up) 1: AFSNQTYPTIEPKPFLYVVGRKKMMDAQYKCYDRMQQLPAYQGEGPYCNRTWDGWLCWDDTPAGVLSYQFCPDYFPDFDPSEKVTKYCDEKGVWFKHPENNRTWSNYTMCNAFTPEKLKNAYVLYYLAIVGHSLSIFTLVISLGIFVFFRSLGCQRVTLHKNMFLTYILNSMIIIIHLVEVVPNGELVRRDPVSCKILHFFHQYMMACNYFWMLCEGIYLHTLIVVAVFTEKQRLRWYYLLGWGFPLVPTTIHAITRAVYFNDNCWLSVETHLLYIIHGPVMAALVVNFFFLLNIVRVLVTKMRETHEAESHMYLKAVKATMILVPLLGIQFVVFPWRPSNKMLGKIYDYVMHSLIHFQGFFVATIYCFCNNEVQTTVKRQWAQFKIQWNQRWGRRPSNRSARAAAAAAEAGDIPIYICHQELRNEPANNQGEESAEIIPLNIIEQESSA
- T1 sequence (looked up) 2: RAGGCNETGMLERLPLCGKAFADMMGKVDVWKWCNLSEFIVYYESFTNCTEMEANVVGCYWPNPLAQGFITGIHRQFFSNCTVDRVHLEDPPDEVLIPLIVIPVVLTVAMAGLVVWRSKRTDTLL
- METHOD NOTES: cell-based or functional assay
*1 amine or outer side, *2 acyl side, *3 side chain or, on linkers, in order; H or OH if unused. Bridges are numbered along the chain shown (N, C = ends). Where no end group is shown, it is not given here. The star is where a group is joined. C20 diacid = O=C(O)CCCCCCCCCCCCCCCCCCC(=O)*; γGlu = O=C(O)[C@H](CCC(=O)[*:2])N[*:1]; AEEA = NCCOCCOCC(=O)O
Recorded Potency Luciferase, one value per entry.
Reply with just the number (in nM).

// worked examples, Potency Luciferase included
binder="HHHCNTATCATQRLANFLHHSSNNFGPILPPTNVGSNTY-NH2 (disulfide 4-9; not fully specified (N-terminus); printed as N-alpha-[(S)-4-Carboxy-4-(19-carboxynonadecanoylamino)butyryl]-His-His-[His1,His17]-pramlintide) [N-alpha-[(S)-4-Carboxy-4-(19-carboxynonadecanoylamino)butyryl]-His-His-[His1,His17]-pramlintide]" recorded_value=0.06
binder="{C20 diacid-γGlu}-HCNTATCATQRLANFLHHSSNNFGPILPPTNVGSNTY-NH2 (disulfide 2-7) [N-alpha-[(S)-4-Carboxy-4-(19-carboxynonadecanoylamino)butyryl]-[His1,His17]-pramlintide]" recorded_value=0.07
binder="HHCNTATCATQRLANFLHRSSNNFGPILPPTNVGSNTY-NH2 (disulfide 3-8; not fully specified (N-terminus); printed as N-alpha-[(S)-4-Carboxy-4-(19-carboxynonadecanoylamino)butyryl]-His-[His1,His17,Arg18]-pramlintide) [N-alpha-[(S)-4-Carboxy-4-(19-carboxynonadecanoylamino)butyryl]-His-[His1,His17,Arg18]-pramlintide]" recorded_value=0.2
binder="{C20 diacid-γGlu-AEEA}-HCNTATCATQRLANFLHHSSNNFGPILPPTNVGSNTY-NH2 (disulfide 2-7)" recorded_value=0.09
binder="HKCNTATCATQRLANFLHHSSNNFGPILPPTNVGSNTY-NH2 (disulfide 3-8; not fully specified (N-terminus); printed as N-alpha-[(S)-4-Carboxy-4-(19-carboxynonadecanoylamino)butyryl]-His-[His17]-pramlintide) [N-alpha-[(S)-4-Carboxy-4-(19-carboxynonadecanoylamino)butyryl]-His-[His17]-pramlintide]" recorded_value=0.1
binder="{C20 diacid-γGlu}-CNTATCATQRLANFLHHSSNNFGPILPPTNVGSNTY-NH2 (disulfide 1-6) [N-alpha-[(S)-4-Carboxy-4-(19-carboxynonadecanoylamino)butyryl]-[His17]-pramlintide (2-37)]" recorded_value=0.1
binder="EECNTATCATQRLANFLRHSSNNFGPILPPTNVGSNTY-NH2 (disulfide 3-8; not fully specified (N-terminus); printed as N-alpha-[(S)-4-Carboxy-4-(19-carboxynonadecanoylamino)butyryl]-Glu-[Glu1,Arg17]-pramlintide) [N-alpha-[(S)-4-Carboxy-4-(19-carboxynonadecanoylamino)butyryl]-Glu-[Glu1,Arg17]-pramlintide]" recorded_value=0.3

Turning to the following binder.
Request: Supply reported Potency Luciferase belonging to this binder: {5‑carboxypentanoyl-γGlu}-HHHCNTATCATQRLANFLHHSSNNFGPILPPTNVGSNTY-NH2 (disulfide 4-9) [N-alpha-[(S)-4-Carboxy-4-(5-carboxypentanoylamino)butyryl]-His-His-[His1,His17]-pramlintide]
Result: 0.04
